Test: Total clearance in Sprague-Dawley rat at 5 mg/kg, iv
Assay type: ADME, organism-based
Parameters: dose 5 mg/kg, route intravenous
Settings: in vivo
I'd appreciate it if you could supply clearance values for the items below.
Quick note: give the figure in mL/min/kg, leave out the unit.

Value of clearance reported for the compound CCn1c(-c2ccc(OCCN(C)c3ccccn3)cc2)nc2c1c(=O)n(Cc1ccccc1C#N)c(=O)n2C is 189

response.value for CCn1c(-c2ccc(OCCN(C)c3ccccn3)cc2)nc2c1c(=O)n(Cc1ccccc1C#N)c(=O)n2C.Cl (field: clearance) = 47.1

---

Would you mind telling me the reported Vd of each entry?
Experiment: Volume of distribution in Sprague-Dawley rat at 5 mg/kg, iv
Format: ADME, organism-based
Parameters: dose 5 mg/kg, route intravenous
Conditions: in vivo
// return numeric value only (unit: L/kg, not printed)

For CCn1c(-c2ccc(OCCN(C)c3ccccn3)cc2)nc2c1c(=O)n(Cc1ccccc1C#N)c(=O)n2C the molecule record lists Vd as 142

response.value for CCn1c(-c2ccc(OCCN(C)c3ccccn3)cc2)nc2c1c(=O)n(Cc1ccccc1C#N)c(=O)n2C.Cl (field: Vd) = 23.6

---

For each of the compounds below, state its bioavailability.
Test: Oral bioavailability in Sprague-Dawley rat at 20 mg/kg
Type: ADME, organism-based
Details: in vivo
Give just the numeric value; % need not be written.

CCn1c(-c2ccc(OCCN(C)c3ccccn3)cc2)nc2c1c(=O)n(Cc1ccccc1C#N)c(=O)n2C has a reported bioavailability of 28

The recorded bioavailability for entry CCn1c(-c2ccc(OCCN(C)c3ccccn3)cc2)nc2c1c(=O)n(Cc1ccccc1C#N)c(=O)n2C.Cl equals 58.9

---

System: 3T3-L1
Assay: Inhibition of triglyceride accumulation in mouse 3T3L1 cells at 10 uM after 24 hrs
Type: functional
The source made the active and inactive calls. The rule behind the calls is not given here.
Measured Property: inhibition

Illustrative cases are given below, each with its answer.
C=CCn1c(-c2ccc(OCCN(C)c3ccccn3)cc2)nc2c1c(=O)n(Cc1ccc(OC)cc1)c(=O)n2C = inactive
CN(CCOc1ccc(-c2nc3c(c(=O)n(Cc4ccccc4C#N)c(=O)n3C)n2CC(=O)O)cc1)c1ccccn1 = inactive
CCn1c(=O)c2c(nc(-c3ccc(OCCN(C)c4ccccn4)cc3)n2CC)n(C)c1=O = inactive
C=CCn1c(=O)c2c(nc(-c3ccc(OCCN(C)c4ccccn4)cc3)n2CC=C)n(C)c1=O = inactive

Readout inhibition for CN(CCOc1ccc(-c2nc3c([nH]2)c(=O)n(CC(=O)O)c(=O)n3C)cc1)c1ccccn1 , test system 3T3-L1, was inactive

C=CCn1c(=O)c2[nH]c(-c3ccc(OCCN(C)c4ccccn4)cc3)nc2n(C)c1=O tested on 3T3-L1 gave inhibition: inactive

Result for CCCn1c(=O)c2c(nc(-c3ccc(OCCN(C)c4ccccn4)cc3)n2CC)n(C)c1=O , tested on 3T3-L1, inhibition: inactive

Value (inhibition, 3T3-L1) for record CCn1c(-c2ccc(OCCN(C)c3ccccn3)cc2)nc2c1c(=O)n(Cc1ccc(F)cc1)c(=O)n2C = inactive

---

System: 3T3-L1
Assay: Inhibition of triglyceride accumulation in mouse 3T3L1 cells at 10 uM after 24 hrs
Assay type: functional
Calls of active or inactive are those of the source. The calls are words filed in the database; no cut-off is given here.
Measured Property: inhibition

CCCn1c(=O)c2[nH]c(-c3ccc(OCCN(C)c4ccccn4)cc3)nc2n(C)c1=O = inactive
CCCCCn1c(-c2ccc(OCCN(C)c3ccccn3)cc2)nc2c1c(=O)n(Cc1ccccc1C#N)c(=O)n2C = inactive
CN(CCOc1ccc(-c2nc3c([nH]2)c(=O)n(CCCC(=O)O)c(=O)n3C)cc1)c1ccccn1 = inactive
